GI50: recorded values
- Tested on: ACHN
- ASSAY_REMARKS: NCI tumour cell line growth inhibition, 48 h
The source made the active and inactive calls. No stated cut-off is given here; in the data, active = GI50 up to about 1.1 µM and inactive = higher.

Below, 8 compounds whose answers are already recorded.
COMPOUND | GI50
C1COCCN1.CN(C)c1ccc(-c2c(C#N)c(N)nc(S)c2C#N)cc1 | > 100 µM (inactive)
N#CC(C#N)=C/C=C/c1c(Cl)cccc1Cl | 1.6 µM (inactive)
CCCC[S+]([O-])CCC(N)P(=O)(O)O (stereo unspecified) | > 100 µM (inactive)
COc1ccc(OC)c(-c2nc(O)c3ccccc3n2)c1 | > 100 µM (inactive)
N#CCCN(CCC#N)c1ccc(C(=N/c2ccc(Cl)cc2)/N=N/c2ccc(Cl)cc2)cc1 | 18.2 µM (inactive)
COc1ccc(N(C(=O)Nc2ccc(Cl)c(Cl)c2)C2c3cccn3C(=O)N2c2ccc(Cl)c(Cl)c2)cc1 (stereo unspecified) | > 100 µM (inactive)
COC1[C@H](NC(=O)OC(C)(C)C)C(=O)N1Cc1ccccc1 (stereo partly specified) | > 100 µM (inactive)
Cc1c(-c2ccccc2)oc(=O)c2ccccc12 | 26.2 µM (inactive)

Assign GI50 to the following record: N#C/C(=C/NC(N)=S)C(N)=O
> 100 µM (inactive)

State its GI50 for this compound: CN(/N=C/C=N/N(C)C1=NCCN1)C1=NCCN1
> 100 µM (inactive)

Determine its reported GI50: O=C(O)/C=C/C=C/c1ccc2c(c1)OCO2 [PIPERIC ACID]
> 100 µM (inactive)
